ASSAYED SYSTEM: Cannabinoid receptor 2 (Homo sapiens, UniProt P34972)
Sequence (P34972 whole entry): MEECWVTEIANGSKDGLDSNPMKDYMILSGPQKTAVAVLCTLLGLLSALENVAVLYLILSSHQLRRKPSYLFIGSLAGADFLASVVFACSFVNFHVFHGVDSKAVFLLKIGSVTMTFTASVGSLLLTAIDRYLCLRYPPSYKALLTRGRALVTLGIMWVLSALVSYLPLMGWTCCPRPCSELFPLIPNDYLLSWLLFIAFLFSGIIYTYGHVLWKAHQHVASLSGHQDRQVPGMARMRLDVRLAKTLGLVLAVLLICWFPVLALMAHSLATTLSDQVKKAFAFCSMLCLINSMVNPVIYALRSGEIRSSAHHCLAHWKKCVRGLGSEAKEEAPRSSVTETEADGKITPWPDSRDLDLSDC
PROCEDURE TEXT: fluorescent pepcan-F4 displacement on CHO-K1-hCB2 cells
VALUE KIND: Ki (nM)
Report the figure in nM without appending any unit label.

What value of Ki has been recorded for this entry: RVDPVNFKLLSH [Pepcan-12 (RVD-hemopressin)] 44
